Assay: ATG_VDRE_CIS: Attagene CIS-FACTORIAL HepG2 Assay for human Vitamin D Receptor Element (VDRE) (AID 2282968)
Conditions: HepG2 VDRE cis-reporter transcription, actives raise or lower the signal
The source made the active and inactive calls. How the source made its calls: active means hit-call score of the fitted dose curve at least 0.9, where 1 is the maximum; inactive means score below 0.9.
PROPERTY_MEASURED: AC50

Example results:
[[record]]
compound = "COC(C)CCO (configuration not stated)"
experimental_value = "65.3 µM (active)"

[[record]]
compound = "CC(=O)Nc1ccc(C)cc1C"
experimental_value = "inactive"

[[record]]
compound = "Nc1ccc(F)c([N+](=O)[O-])c1"
experimental_value = "inactive"

[[record]]
compound = "CN(C)c1ccc(O)c2c1C[C@H]1C[C@H]3[C@H](N(C)C)C(=O)C(C(N)=O)=C(O)[C@@]3(O)C(=O)C1=C2O"
experimental_value = "inactive"

[[record]]
compound = "N#Cc1nc(Cl)c(Cl)c(Cl)c1Cl"
experimental_value = "4.14 µM (active)"

[[record]]
compound = "COc1cc(C(C)(C)C)c(O)c(C(C)(C)C)c1"
experimental_value = "inactive"


Please examine the following record next.
Exercise: Please report the measured AC50 for COC(=O)OC
Key: inactive

====

Read-out: Interleukin-8 (IL8), CXCL8 (gene 3576)
Assay: BSK_SAg_IL8: BioMAP Diversity Plus: SAg Assay for Interleukin-8 (IL8) Biomarker Activity (AID 2283094)
Details: primary human HUVEC with PBMC; actives raise or lower the signal
Description: BSK_SAg is a cell-based, multiplexed-readout assay that uses umbilical vein endothelium and peripheral blood mononuclear cells, a human vascular primary cell co-culture, with measurements taken at 24 hours after chemical dosing in a 96-well plate.BSK_SAg_IL8 is an assay component measured in the BSK_SAg assay. It measures IL-8 antibody related to regulation of gene expression using ELISA technology.Data from the assay component BSK_SAg_IL8 was analyzed into 1 assay endpoint. […]
Active and inactive are the calls of the source. The calls were made as follows: active = hit-call score of the fitted dose curve at least 0.9, where 1 is the maximum; inactive = score below 0.9.
API: response.call in y for active, n for inactive

Exercise: Give the logged outcome of this assay for the following molecule: CCCCC(CC)COC(=O)/C=C\C(=O)OCC(CC)CCCC (centres undefined)
Key: n

Exercise: Per the records of this test, what outcome belongs to O=C(O)c1ccc([N+](=O)[O-])cc1 ?
Key: n

Exercise: Recorded call for CC1COc2ccccc2N1C(=O)C(Cl)Cl (centres undefined) ?
Key: n

Exercise: What did the test return for CCCCCCCCCC=O ?
Key: n

Exercise: Name the outcome recorded for CC(=O)/C=C/C1=C(C)CCCC1(C)C in the assay.
Key: n

Exercise: Hi, sorry to bother you, what did the test record for CC1CCC(C(C)CS)CC1S (centres undefined) ?
Key: y

Exercise: Kindly provide the recorded test outcome for the following molecule: CCCCC(CC)COCCC#N (centres undefined)
Key: y

Exercise: How did this test come out for N#Cc1ccc(CC(=NNC(=O)Nc2ccc(OC(F)(F)F)cc2)c2cccc(C(F)(F)F)c2)cc1 ?
Key: n

Exercise: Write down the call the test reported for this molecule. Item: CC(=O)[C@H]1CC[C@H]2[C@@H]3CC=C4C[C@@H](O)CC[C@]4(C)[C@H]3CC[C@]12C
Key: n

Exercise: Outcome? c1ccc2sc(SN(C3CCCCC3)C3CCCCC3)nc2c1
Key: y

Exercise: // return assay outcome for C=C[Si](OCC)(OCC)OCC
Key: n

Exercise: What classification did NCCNCCN end up with in this test?
Key: n

Exercise: What is the recorded call for this molecule in the test? O=C1CCCCCCCCCCCCCCO1
Key: n

Exercise: Record lookup: outcome of this test for c1ccc2c(c1)c1cccc3ccc4cccc2c4c31 ?
Key: n

====

Biological target: Transcription factor Sp1 (Homo sapiens) (UniProt P08047)
Sequence (P08047 whole entry, looked up): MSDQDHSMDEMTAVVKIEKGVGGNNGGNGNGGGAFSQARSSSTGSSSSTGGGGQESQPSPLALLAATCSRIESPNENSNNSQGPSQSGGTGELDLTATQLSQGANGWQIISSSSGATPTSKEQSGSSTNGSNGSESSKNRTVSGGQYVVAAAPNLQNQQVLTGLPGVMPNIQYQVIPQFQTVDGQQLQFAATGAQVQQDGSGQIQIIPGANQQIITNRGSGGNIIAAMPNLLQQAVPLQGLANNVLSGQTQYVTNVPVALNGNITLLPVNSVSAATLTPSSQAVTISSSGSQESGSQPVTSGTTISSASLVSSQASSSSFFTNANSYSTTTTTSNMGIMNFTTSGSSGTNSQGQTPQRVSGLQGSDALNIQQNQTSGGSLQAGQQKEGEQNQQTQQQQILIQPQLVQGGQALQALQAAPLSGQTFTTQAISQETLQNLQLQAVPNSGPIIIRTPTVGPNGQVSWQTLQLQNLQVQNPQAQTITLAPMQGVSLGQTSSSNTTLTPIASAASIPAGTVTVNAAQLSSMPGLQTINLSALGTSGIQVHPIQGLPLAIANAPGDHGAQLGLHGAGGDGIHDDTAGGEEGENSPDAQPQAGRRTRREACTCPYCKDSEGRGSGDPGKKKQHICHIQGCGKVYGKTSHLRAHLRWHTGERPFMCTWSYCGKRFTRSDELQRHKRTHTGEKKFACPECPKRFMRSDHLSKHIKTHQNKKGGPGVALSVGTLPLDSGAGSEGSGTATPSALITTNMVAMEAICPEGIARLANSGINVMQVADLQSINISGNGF
Assay: ATG_Sp1_CIS: Attagene CIS-FACTORIAL HepG2 Assay for human Specificity Protein 1 (Sp1) (AID 2282961)
Conditions: HepG2 Sp1 cis-reporter transcription, actives raise or lower the signal
Description: ATG_CIS is a cell-based, multiplexed-readout assay that uses HepG2, a human liver cell line, with measurements taken at 24 hours after chemical dosing in a 24-well plate.ATG_Sp1_CIS is one of 52 assay component(s) measured or calculated from the ATG_CIS assay. […] This assay endpoint, ATG_Sp1_CIS, was analyzed with bidirectional fitting relative to DMSO as the negative control and baseline of activity. […]
Active and inactive are the calls of the source. How the source made its calls: active means hit-call score of the fitted dose curve at least 0.9, where 1 is the maximum; inactive means score below 0.9.
Form entry, call: pick from active, inactive

Exercise: Give the logged outcome of this assay for the following compound: c1ccc2c(c1)c1cccc3ccc4cccc2c4c31
Key: inactive

Exercise: Lab log entry: CC[C@]12CCCN3CCc4c(n(c5ccccc45)[C@@](O)(C(=O)OC)C1)[C@@H]32 — outcome as called in the assay?
Key: inactive

Exercise: Answer briefly: the call reported for C=CC(C)(O)CCC=C(C)CCC=C(C)C (stereo not drawn) in this assay.
Key: active

Exercise: Hello, I am checking results. What call was entered for CC(=O)C(=O)O ?
Key: inactive

Exercise: Dear colleague, could you share the recorded outcome for C=C(C)[C@@H]1CC[C@@H](C)C[C@@H]1O when you have a moment?
Key: inactive

Exercise: // param item: c1ccc2sc(SN(C3CCCCC3)C3CCCCC3)nc2c1 ; yields the recorded call
Key: inactive

Exercise: Please indicate how the test categorized C=C(C)C(=O)NCCCN(C)C .
Key: inactive

Exercise: GET /call?item= CC1CCC2CC1C2(C)C (stereo not drawn) returns the recorded outcome of this test.
Key: inactive

Exercise: Assay result, entry c1ccc2[nH]ccc2c1 — outcome?
Key: inactive

Exercise: What did the test return for C=CCOc1nc(OCC=C)nc(OCC=C)n1 ?
Key: inactive

Exercise: Hi, sorry to bother you, what did the test record for COc1ccc(NC(=O)CC(C)=O)cc1 ?
Key: inactive

Exercise: Hey, what did the test say about CC1(C)CCC(C)(C)c2cc(C(=O)Nc3ccc(C(=O)O)cc3)ccc21 ?
Key: inactive

Exercise: Look up the recorded call for CC(=O)[C@H]1CC[C@H]2[C@@H]3CC=C4C[C@@H](O)CC[C@]4(C)[C@H]3CC[C@]12C in this test.
Key: inactive

====

Assay: CCTE_Deisenroth_5AR_NBTE_acceptor: CCTE's 5alpha-reductase NanoBRET Target Engagement Assay - Autofluorescence Screen, Deisenroth Lab (AID 2284321);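 further: compound fluorescence in the acceptor channel under 460 nm excitation flags autofluorescence artifacts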
Conditions: actives raise or lower the signal
The source made the active and inactive calls. The calls were made as follows: active = hit-call score of the fitted dose curve at least 0.9, where 1 is the maximum; inactive = score below 0.9.
PROPERTY_MEASURED: AC50

Example entries and their recorded answers appear below.
[[record]]
compound = "CCCCCCCCCCCCCOS(=O)(=O)O"
experimental_value = "43.2 µM (active)"

[[record]]
compound = "CCCCCCCCCCCCCCCC(=O)OC[C@H](O)[C@H]1OC(=O)C(O)=C1O"
experimental_value = "inactive"

[[record]]
compound = "CCCCCCCCCCCCCC(=O)O"
experimental_value = "inactive"

[[record]]
compound = "CCN(CC)c1ccc2c(-c3ccccc3C(=O)O)c3ccc(=[N+](CC)CC)cc-3oc2c1"
experimental_value = "inactive"


Exercise: Please report the measured AC50 for CCCCCC(CO)CCC (centres undefined)
Key: inactive

====

Assay: BSK_3C_Proliferation: Cell Proliferation Assessment in the BioMAP Diversity Plus: 3C Assay (AID 2283006)
Settings: primary human endothelial cells (HUVEC)
Activity calls are given as the source filed them. How the source made its calls: active means hit-call score of the fitted dose curve at least 0.9, where 1 is the maximum; inactive means score below 0.9.
Select the matching outcome among active, inactive

Exercise: Lab log entry: CN(CCOc1ccc(CC2SC(=O)NC2=O)cc1)c1ccccn1 (stereo unspecified) — outcome as called in the assay?
Key: active

Exercise: Record request — test call for N#Cc1ccc(CC(=NNC(=O)Nc2ccc(OC(F)(F)F)cc2)c2cccc(C(F)(F)F)c2)cc1
Key: inactive

Exercise: So what was the verdict on Cc1ccc(O)c(C(C)(C)C)c1 in this test?
Key: active

Exercise: GET /call?item= O=P(c1ccccc1)(c1ccccc1)c1ccccc1 returns the recorded outcome of this test.
Key: inactive

Exercise: What classification did O=C1CCCCCCCCCCCCCCO1 end up with in this test?
Key: active

Exercise: Entry BrC1CCC(Br)C(Br)CCC(Br)C(Br)CCC1Br (stereo unspecified) : call = ?
Key: active

====

Experiment: BSK_3C_SRB: Viability Assessment in the BioMAP Diversity Plus: 3C Assay (AID 2283023);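 further: cells read 24 h after compound dosing; fitted both ways against DMSO so a hit may be signal rise or drop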
Conditions: primary human endothelial cells (HUVEC)
Activity calls are given as the source filed them. How the source made its calls: active means hit-call score of the fitted dose curve at least 0.9, where 1 is the maximum; inactive means score below 0.9.
The reply should name one outcome from active, inactive

Exercise: So what was the verdict on O=P(c1ccccc1)(c1ccccc1)c1ccccc1 in this test?
Key: inactive

Exercise: # fetch the recorded call for CCCCC/C=C/C=C/C=O here
Key: active

Exercise: Name the outcome recorded for c1ccc2sc(SN(C3CCCCC3)C3CCCCC3)nc2c1 in the assay.
Key: active

Exercise: Given CC1COc2ccccc2N1C(=O)C(Cl)Cl (centres undefined) , state the outcome it received in this test.
Key: active

Exercise: Just curious, what result did CC(C)c1ccc(C(C)C)cc1 get here?
Key: active

Exercise: Record lookup: outcome of this test for COc1cc(C=O)ccc1OC(=O)C(C)C ?
Key: inactive

Exercise: What classification did C=C(C)C(=O)O[C@H]1C[C@@H]2CC[C@@]1(C)C2(C)C end up with in this test?
Key: active

Exercise: // return assay outcome for CCC(=O)OCc1ccccc1
Key: inactive

Exercise: Look up the recorded call for BrC1CCC(Br)C(Br)CCC(Br)C(Br)CCC1Br (centres undefined) in this test.
Key: active

Exercise: Any idea what this test logged for Nc1cc([N+](=O)[O-])ccc1Cl ?
Key: inactive

Exercise: GET /call?item= O=[N+]([O-])c1cc(C(F)(F)F)ccc1Cl returns the recorded outcome of this test.
Key: inactive

Exercise: What did the test return for C#C[C@]1(O)CC[C@H]2[C@@H]3CCC4=Cc5oncc5C[C@]4(C)[C@H]3CC[C@@]21C ?
Key: active

Exercise: Hi team, can someone confirm the assay call for COC(=O)c1ccc(C)cc1 ?
Key: inactive

Exercise: Could you kindly confirm the outcome this assay logged for Nc1cc([N+](=O)[O-])ccc1O ?
Key: inactive
